Listed below: %Inh values for each entry.
Test system: HCK;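 note: KINOMEscan kinase panel screen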
MEASUREMENT_CONTEXT: concentration: 1 μM, replicates: in singlicate; n = 1
Lab book: enter the figure in %, no units written.

Known %Inh results, listed for orientation:
{"COMPOUND": "Cc1nc(N(C)[C@H]2CN(C(=O)CC#N)CC[C@H]2C)c2cc[nH]c2n1", "%Inh / %": 0}
{"COMPOUND": "Cc1ccc(Oc2ccc(Nc3ncnc4cc[nH]c34)cc2C)cn1", "%Inh / %": 16}
{"COMPOUND": "COc1cc(Nc2nccc(N3CCC(NC(=O)C(C)c4ccc(Cl)cc4)C3)n2)cc(OC)c1OC (stereo not shown)", "%Inh / %": 11}
{"COMPOUND": "Nc1n[nH]c2ncc(-c3ccccc3)cc12", "%Inh / %": 0}
{"COMPOUND": "C[C@@H]1CC[C@H](C(=O)NC2CCCCC2)CN1c1cc(-c2ccc3c(N)n[nH]c3c2)nc(N)n1", "%Inh / %": 0}
{"COMPOUND": "Nc1ncnc2c1ncn2-c1cccc2ccccc12", "%Inh / %": 7}
{"COMPOUND": "O=C1NC(=O)C(c2ccccc2)=C1Nc1cccc(O)c1", "%Inh / %": 6}
{"COMPOUND": "COc1ccc(-c2coc3ccc(-c4nnc(SCc5cccc(C#N)c5)o4)cc23)cc1", "%Inh / %": 20}

Then there is this compound:
[in] Using the record for COC(=O)c1c(-c2ccccc2)c2cc(Br)ccc2c(=O)n1Cc1ccc(S(C)(=O)=O)cc1 , report its %Inh.
[out] 9

Reference source: paper PMC5540273
